biological target: T1, human EphA5 (Homo sapiens, UniProt P54756); assay: Selectivity ELISA of humanized antibodies for human Eph receptor; type: binding; details: coated protein 1 nM
T1 construct: a protein of the extracellular region of each human Eph receptor fused with the SEAP protein and the His tag; made in house; host or cells: Expi293F cells (culture supernatant)
T1 sequence (P54756 25-573 limits assumed): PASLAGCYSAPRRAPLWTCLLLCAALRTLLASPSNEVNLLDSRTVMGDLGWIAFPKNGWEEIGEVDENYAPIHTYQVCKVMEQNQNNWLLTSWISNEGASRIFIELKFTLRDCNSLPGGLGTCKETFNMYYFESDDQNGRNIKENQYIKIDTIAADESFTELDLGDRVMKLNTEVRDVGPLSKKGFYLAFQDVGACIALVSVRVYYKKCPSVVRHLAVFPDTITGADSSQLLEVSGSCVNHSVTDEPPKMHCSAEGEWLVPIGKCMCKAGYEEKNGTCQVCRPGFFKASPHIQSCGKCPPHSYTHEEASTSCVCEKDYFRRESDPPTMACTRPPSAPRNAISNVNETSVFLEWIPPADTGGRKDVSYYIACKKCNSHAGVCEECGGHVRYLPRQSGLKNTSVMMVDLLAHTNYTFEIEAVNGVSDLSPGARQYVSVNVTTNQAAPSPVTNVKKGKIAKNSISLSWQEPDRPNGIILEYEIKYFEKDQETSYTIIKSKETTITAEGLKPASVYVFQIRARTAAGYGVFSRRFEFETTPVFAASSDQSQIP
Can you tell me hEphA5-SEAP-: absorbance at 450 nm, percentage with respect to hEphA4-SEAP-His as 100% for the items I'm about to list?
Numbers only, in %.

molecule | value-measured
138 (antibody, V domains shown, synthetic humanized antibody heavy chain variable region sequence; synthetic humanized antibody light chain variable region sequence) VH: QIQLVQSGSELKKPGASVKVSCKASGYTFTDYSMHWVRQAPGQGLKWMGWINTETGEPTYAQGFTGRFVFSLDTSVSTAYLQISSLKAEDTAVYYCARIPLYYYGSRYWYFDVWGQGTTVTVSS VL: DIQMTQSPSSLSASVGDRVTITCRASENIYRNLAWYQQKPGKAPKLLVYAATNLADGVPSRFSGSGSGTDYTLTISSLQPEDFATYYCQHFWGTPWTFGQGTKVEIK | 5.1

Consider now this further molecule.
Ask: Input 76 (antibody, V domains shown, synthetic humanized antibody heavy chain variable region sequence; synthetic humanized antibody light chain variable region sequence) VH: QVQLVQSGSELKKPGASVKVSCKASGYTFTDYSMHWVRQAPGQGLKWMGWINTETGEPTYAQGFTGRFVFSLDTSVSTAYLQISSLKAEDTAVYYCARIPLYYYGSRYWYFDVWGQGTTVTVSS VL: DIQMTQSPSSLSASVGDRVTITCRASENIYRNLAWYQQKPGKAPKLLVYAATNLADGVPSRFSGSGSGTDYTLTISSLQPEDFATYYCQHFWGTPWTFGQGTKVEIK , output reported hEphA5-SEAP-: absorbance at 450 nm, percentage with respect to hEphA4-SEAP-His as 100%.
Result: 5.3
